# key: entry, value: LC retention time
# protocol description: RP, Thermo Scientific Acclaim RSLC 120 C18, 100 × 2.1 mm, 2.2 µm, 30 °C, 0.2 mL/min, estimated dead time 1.1 min; A: 90% water + 10% methanol + 0.01% formic acid + 5 mM ammonium formate, pH 3.61; B: methanol + 0.01% formic acid + 5 mM ammonium formate, pH 3.61; gradient (min/%B) 0/1 1/1 2/39 13/99.9 15/99.9 15.1/1 20.1/1
# setup conditions: stereoisomer not certain
quantity measured: LC retention time (min)

>>> reported_result("Cc1ccc2c(-c3ccccc3)nc(=O)n(C(C)C)c2c1")
9.61
>>> reported_result("CCNC(C)C(=O)c1ccc(C)cc1 (stereo not drawn)")
4.74
>>> reported_result("NS(=O)(=O)c1cc2c(cc1Cl)NCNS2(=O)=O [Hydrochlorothiazide (NH4)]")
3.24
>>> reported_result("CNC(=O)CSP(=S)(OC)OC [Dimethoate]")
5.23
>>> reported_result("Cc1ccccc1C(=O)Nc1cccc(OC(C)C)c1")
9.62
>>> reported_result("O=C(O)C(c1ccccc1)C1CCCCN1 (stereo not drawn)")
4.61
>>> reported_result("CCCOC(C(=O)OC1CCN(C)CC1)(c1ccccc1)c1ccccc1")
9.36
>>> reported_result("c1ccc2c(c1)Cc1ccccc1N1CCNCC21 (stereo not drawn)")
6.86
>>> reported_result("c1ccc2c(c1)CCCC2C1=NCCN1 (stereo not drawn)")
4.47
>>> reported_result("CCN1CC2(COC)C(O)CC(OC)C34C5CC6(O)C(OC)C(O)C(OC(C)=O)(C5C6OC(=O)c5ccccc5)C(C(OC)C23)C14 (stereo not drawn)")
7.09
>>> reported_result("O=C(CCCN1CCC(O)(c2cccc(C(F)(F)F)c2)CC1)c1ccc(F)cc1")
7.42
>>> reported_result("COc1cc(NS(=O)(=O)c2ccc(N)cc2)nc(OC)n1")
5.6
>>> reported_result("CC(=O)Nc1cc(NS(=O)(=O)C(F)(F)F)c(C)cc1C [Mefluidide]")
6.85
>>> reported_result("CCC1OC(=O)C(C)C(OC2CC(C)(OC)C(O)C(C)O2)C(C)C(OC2OC(C)CC(N(C)C)C2O)C(C)(O)CC(C)CN(C)C(C)C(O)C1(C)O (stereo not drawn)")
5.98
>>> reported_result("Cc1ccn2nc(S(=O)(=O)Nc3c(F)cccc3F)nc2n1")
4.83
>>> reported_result("CCOC(=O)C1=NN(c2ccc(Cl)cc2Cl)C(C)(C(=O)OCC)C1 (stereo not drawn)")
11.1
>>> reported_result("COc1nc(C)nc(NC(=O)NS(=O)(=O)c2ccccc2CCC(F)(F)F)n1")
8.57
>>> reported_result("CCS(=O)(=O)Cc1ccccc1OC(=O)NC")
4.63
